Target: T1, Cynomolgus Monkey CD3 epsilon protein (Cynomolgus monkey, UniProt Q95LI5 22-117)
T1 construct: Bought protein; also called Cyno-Monkey CD3epsilon
T1 sequence (looked up): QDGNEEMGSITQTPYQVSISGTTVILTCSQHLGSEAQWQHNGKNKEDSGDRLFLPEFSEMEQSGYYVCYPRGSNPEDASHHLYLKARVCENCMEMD
Assay: ELISA, antigen coated on plate
MEASURE: pEC50
# log scale: pEC50 equals minus log10 of the concentration in mol/L

{"BINDER": "WBP3311_2.166.48 (antibody, IgG2a, V domains shown, Mouse monoclonal antibody from hybridoma; also called W3311-2.166.48; W3311_2.166.48) VH: QVQLQQSGPELVKPGASVKIACKASGYSFTTYYIHWVKQRPGQGLEWIGWIFPGNDNIKYSEKFKGKATLTADTSSSTAYMQLSSLTSEDSAVYFCAIDSVSIYYFDYWGQGTTLTVSS VL: DIVMSQSPSSLAVSAGEKVTMSCKSSQSLLNSRTRKNYLAWYQQKPGQSPKLLIYWASTRKSGVPDRFTGSGSGTDFTLTINSVQAEDLAVYYCTQSFILRTFGGGTKLEIK", "QUANTITATIVE_RESULT": 10.48}
{"BINDER": "WBP3311_2.306.4 (antibody, IgG2b, V domains shown, Mouse monoclonal antibody from hybridoma; also called W3311-2.306.4; W3311-2.306.4-mIgG2bK) VH: QVQLQQSGPELVKPGASVRISCKASGFAFTDYYIHWVKQRPGQGLEWIGWISPGNVNTKYNENFKGRATLTADLSSSTAYMQLSSLTSEDSAVYFCARDGYSLYYFDYWGQGTTLTVSS VL: DIVMSQSPSSLTVSAGEKVTMSCKSSQSLLNSRTRKNYLAWYQQKPGQSPKLLIYWASTRQSGVPDRFTGSGSGTAFTLTISGVQAEDLAVYFCTQSHTLRTFGGGTKLEIK", "QUANTITATIVE_RESULT": 10.96}

API: the following record is the query input.
Exercise: What measured pEC50 goes with WBP3311_2.482.5 (antibody, V domains shown, Mouse monoclonal antibody from hybridoma; also called W3311-2.482.5) VH: QVQLQQSGPELVKPGSSVKISCKPSGYTFTTYYIHWVKQRPGQGLEWIGWIFPGSDNIKYNENFKDKATLTADTSSSTAYMQLSSLTSEDSAVYFCARDSVSRYYFDYWGQGTILTVSS VL: DIVMSQSPSSLAVSAGEKVTMSCKSSQSLVNDRTRKNYLAWYQQKPGLSPKLLIYWASTRESGVPDRFTGSGSGTDFTLTISSVQAEDLAVYYCAQSFILRTFGGGTKLEIK ?
Key: 10.55
